Entry source: patent US9382295B2

# ASSAY INFO: Rat pharmacokinetics, iv and po dosing, whole blood and plasma
# Type: in vivo
# EXPERIMENTAL SETUP: whole blood, po 10 mg/kg, mean
EXPERIMENTAL READOUT: AUC(0-inf) (ng·h/mL)
The response must be a number in ng·h/mL with no trailing unit.

Fill blank: measured AUC(0-inf) of the compound CC(C)CC1NC(=O)[C@H](CC(C)C)N(C)C(=O)CN(C)C(=O)C([C@@H](C)O)NC(=O)C([C@H](O)[C@H](C)CCN2CCOCC2)N(C)C(=O)C(C(C)C)N(C)C(=O)C(CC(C)C)NC(=O)C(CC(C)C)N(C)C(=O)C(C(C)C)OC(=O)C(C)NC(=O)C(CC(C)C)N(C)C1=O (stereo in doubt) [Example 2] is ____. 6020
